measured.target: E. coli gyrase (Escherichia coli, UniProt P0AES4+P0AES6)
Construct: purchased Lucent, Ltd., Leicester, UK
Sequence (P0AES4 whole entry, one chain of several): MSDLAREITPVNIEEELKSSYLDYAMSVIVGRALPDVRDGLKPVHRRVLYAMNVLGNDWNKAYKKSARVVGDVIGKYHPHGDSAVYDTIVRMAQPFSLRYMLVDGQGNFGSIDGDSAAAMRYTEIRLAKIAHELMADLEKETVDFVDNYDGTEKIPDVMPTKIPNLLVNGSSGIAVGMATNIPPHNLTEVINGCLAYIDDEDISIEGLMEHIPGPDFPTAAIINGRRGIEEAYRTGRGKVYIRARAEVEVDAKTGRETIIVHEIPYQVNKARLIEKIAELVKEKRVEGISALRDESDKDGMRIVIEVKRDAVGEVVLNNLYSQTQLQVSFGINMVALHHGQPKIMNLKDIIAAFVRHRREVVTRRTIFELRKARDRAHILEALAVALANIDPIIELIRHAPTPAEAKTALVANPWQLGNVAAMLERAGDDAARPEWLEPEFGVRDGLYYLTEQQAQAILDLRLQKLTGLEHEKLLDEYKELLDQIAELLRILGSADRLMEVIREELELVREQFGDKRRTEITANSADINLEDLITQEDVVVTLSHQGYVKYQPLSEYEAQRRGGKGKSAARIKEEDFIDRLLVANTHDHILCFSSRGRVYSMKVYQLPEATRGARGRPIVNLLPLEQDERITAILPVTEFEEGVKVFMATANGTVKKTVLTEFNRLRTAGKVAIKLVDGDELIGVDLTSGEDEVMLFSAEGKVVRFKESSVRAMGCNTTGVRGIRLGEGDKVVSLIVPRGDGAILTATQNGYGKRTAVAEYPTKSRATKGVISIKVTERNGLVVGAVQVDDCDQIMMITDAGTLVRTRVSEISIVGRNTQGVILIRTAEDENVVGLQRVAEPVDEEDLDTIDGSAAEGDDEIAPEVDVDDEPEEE
test.summary: DNA gyrase supercoiling inhibition assay
Type: biochemical

| compound | measured.target | IC50 |
| --- | --- | --- |
| CCn1c(=O)n(O)c(=O)c2cc(F)c(N3CCC(C)(CN)C3)cc21.Cl (stereo not shown) [Example 9, hydrochloride] | E. coli gyrase (Escherichia coli, UniProt P0AES4+P0AES6) | 15.5 µM |
| CCn1c(=O)n(O)c(=O)c2cc(F)c(N3CCN(C)CC3)cc21 | E. coli gyrase (Escherichia coli, UniProt P0AES4+P0AES6) | 22 µM |
| CCn1c(=O)n(O)c(=O)c2cc(F)c(N3CCC(CN)C3)cc21.Cl (stereo not shown) [Example 6, hydrochloride] | E. coli gyrase (Escherichia coli, UniProt P0AES4+P0AES6) | 5.5 µM |
| CCn1c(=O)n(O)c(=O)c2cc(F)c(N3CCNCC3)cc21 | E. coli gyrase (Escherichia coli, UniProt P0AES4+P0AES6) | > 100 µM |
